Data origin, for the record: paper PMC5683647

- MEASUREMENT_TARGET: HU (Neisseria gonorrhoeae)
- Sequence: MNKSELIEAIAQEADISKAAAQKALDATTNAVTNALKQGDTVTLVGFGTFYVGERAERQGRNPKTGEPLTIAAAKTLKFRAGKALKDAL
- EXPERIMENT_DESCRIPTION: EMSA
- EXPERIMENTAL_SETUP: 20 mM Tris-HCl pH 8.0, 150 mM NaCl, 7% glycerol; 15 min; labelled DNA 10.5 nM; gel in 100 mM Tris-borate; temperature not stated; low values mean tight binding

MACROMOLECULE_SEQUENCE	Kd
AGTCTAGAGTGCAGTTGAGTCCTTGCTACGACGGATCCCTTAGGTCAG (double strand) [D48 dsDNA (ds)]	1100 nM
